// provenance: patent US20240247080A1

Molecular target: T1, NPY2 receptor (human (printed as hNPY2R), UniProt P49146 1-381)
T1 sequence (looked up): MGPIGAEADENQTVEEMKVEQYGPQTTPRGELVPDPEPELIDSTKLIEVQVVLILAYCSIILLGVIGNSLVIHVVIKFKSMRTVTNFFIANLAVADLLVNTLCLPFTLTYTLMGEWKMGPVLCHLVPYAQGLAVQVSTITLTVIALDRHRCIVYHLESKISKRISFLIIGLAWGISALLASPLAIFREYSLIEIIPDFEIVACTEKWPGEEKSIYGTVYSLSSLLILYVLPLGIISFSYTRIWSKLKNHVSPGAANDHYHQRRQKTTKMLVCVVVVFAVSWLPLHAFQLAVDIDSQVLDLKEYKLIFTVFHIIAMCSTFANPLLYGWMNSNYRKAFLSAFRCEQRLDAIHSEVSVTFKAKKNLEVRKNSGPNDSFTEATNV
Test: cell-based or functional assay
Starred links: 1 amine or outer side, 2 acyl side, 3 side chain; linkers in the order of their positions; H or OH if unused. Non-standard residues stand in square brackets, D forms with d. Groups on a side chain read outwards from the residue. No end group written: not given here. *: point of attachment. C20 diacid = O=C(O)CCCCCCCCCCCCCCCCCCC(=O)*; C18 diacid = O=C(O)CCCCCCCCCCCCCCCCC(=O)*; γGlu = O=C(O)[C@H](CCC(=O)[*:2])N[*:1]; AEEA = NCCOCCOCC(=O)O; Aib = CC(C)(N)C(=O)O
Test Readout: EC50 hNPY2R 100% hP (CreLuc) (nM)
Please respond with the number in nM and leave the unit unwritten.

Solved cases below.
Entry Y[Aib]EGTFTSDYSI[Aib]LEKQAQ[Aib]AFVEWLIKGGPSSPASLRHYYNWLTRQRY-NH2 (not fully specified (residue 28); also: TFA salt) [Compound 178] ; EC50 hNPY2R 100% hP (CreLuc) = 115

Entry Y[Aib]EGTFTSDYSI[Aib]LEKQAQ[Aib]EFVEWLIK([AEEA-AEEA-γGlu-γGlu-γGlu-γGlu-C20 diacid])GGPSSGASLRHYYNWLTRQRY-NH2 (also: TFA salt) [Compound 205] ; EC50 hNPY2R 100% hP (CreLuc) = 37.7

---
Entry YXEGTFTSDYSIXLEKQAQXAFVEWLIKGGPSEGESLRHYYNWLTRQRY (Aib at 2, 13, 20; K28 side chain carries C20DA-gGlu-gGlu-gGlu-gGlu-gGlu-gGlu-eLys; C-terminal amide) [Compound 237] ; EC50 hNPY2R 100% hP (CreLuc) = 45.5

Entry Y[Aib]EGTFTSDYSI[Aib]LEKQAQ[Aib]EFVEWLIKGGPSSGASLRHYYNWLTRQRY-NH2 (not fully specified (residue 28); also: TFA salt) [Compound 201] ; EC50 hNPY2R 100% hP (CreLuc) = 31

Entry Y[Aib]EGTFTSDYSI[Aib]LEKQAQ[Aib]AFVQWLIK([AEEA-AEEA-γGlu-γGlu-γGlu-γGlu-C18 diacid])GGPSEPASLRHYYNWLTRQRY-NH2 (also: TFA salt) [Compound 173] ; EC50 hNPY2R 100% hP (CreLuc) = 24.9

Entry Y[Aib]EGTFTSDYSI[Aib]LEKQAQ[Aib]AFVEWLIKGGPEEPASLRHYYNWLTRQRY-NH2 (not fully specified (residue 28); also: TFA salt) [Compound 206] ; EC50 hNPY2R 100% hP (CreLuc) = 61.7
